system: Staphylococcus epidermidis; assay: Antibacterial activity against methicillin-resistant Staphylococcus epidermidis MRSE17-2 measured by liquid dilution method; assay type: functional
Just a reminder that ties go to criterion not met: only MIC strictly below 1 µg/mL counts as criterion met.

Does the reported MIC of the following compound sit strictly below 1 µg/mL? "CNC1=NC(=O)[C@H]([C@H](C)c2c[nH]c3cccc(Br)c23)O1"
criterion not met

Does the reported MIC of the following compound sit strictly below 1 µg/mL? "CNC1=NC(=O)[C@@H]([C@@H](C)c2c[nH]c3ccccc23)O1"
criterion not met

Does the reported MIC of the following compound sit strictly below 1 µg/mL? "CNC1=NC(=O)[C@H]([C@H](C)c2c[nH]c3c(F)cccc23)O1"
criterion met

Does the reported MIC of the following compound sit strictly below 1 µg/mL? "CNC1=NC(=O)[C@@H]([C@@H](C)c2c[nH]c3cccc(Cl)c23)O1"
criterion not met

Does the reported MIC of the following compound sit strictly below 1 µg/mL? "CNC1=NC(=O)[C@@H]([C@@H](C)c2c[nH]c3cccc(F)c23)O1"
criterion not met

Further cases:
Does the reported MIC of the following compound sit strictly below 1 µg/mL? "CNC1=NC(=O)[C@H]([C@H](C)c2c[nH]c3cccc(C)c23)O1"
criterion met

Does the reported MIC of the following compound sit strictly below 1 µg/mL? "CNC1=NC(=O)[C@@H]([C@@H](C)c2c[nH]c3cccc(Br)c23)O1"
criterion not met

Does the reported MIC of the following compound sit strictly below 1 µg/mL? "CNC1=NC(=O)[C@H]([C@H](C)c2c[nH]c3cccc(Cl)c23)O1"
criterion met

* * *

test system: Staphylococcus aureus; test: Antibacterial activity against methicillin-sensitive Staphylococcus aureus MSSA17-2 measured by liquid dilution method; format: functional
I'd appreciate it if you could supply MIC values for the items below.
Give bare numbers, in µg/mL.

Here are 5 compounds together with their reported answers.
Sample "CNC1=NC(=O)[C@H]([C@H](C)c2c[nH]c3cccc(Br)c23)O1" — what was its MIC?
4

Sample "CNC1=NC(=O)[C@@H]([C@@H](C)c2c[nH]c3cccc(Cl)c23)O1" — what was its MIC?
64

Sample "CNC1=NC(=O)[C@H]([C@H](C)c2c[nH]c3cccc(C)c23)O1" — what was its MIC?
1

Sample "CNC1=NC(=O)[C@H]([C@H](C)c2c[nH]c3c(F)cccc23)O1" — what was its MIC?
0.5

Sample "CNC1=NC(=O)[C@H]([C@H](C)c2c[nH]c3cccc(Cl)c23)O1" — what was its MIC?
1

Further cases:
Sample "CNC1=NC(=O)[C@H]([C@H](C)c2c[nH]c3ccccc23)O1" — what was its MIC?
0.5

* * *

tested on: Staphylococcus epidermidis; assay: Antibacterial activity against methicillin-resistant Staphylococcus epidermidis MRSE17-2 measured by liquid dilution method; format: functional
parameter-measured: MIC

Recorded MIC for "CNC1=NC(=O)[C@@H]([C@@H](C)c2c[nH]c3cc(F)ccc23)O1" with Staphylococcus epidermidis, please?
> 128 µg/mL

Recorded MIC for "CNC1=NC(=O)[C@H]([C@H](C)c2c[nH]c3cc(F)ccc23)O1" with Staphylococcus epidermidis, please?
16 µg/mL

Recorded MIC for "CNC1=NC(=O)[C@@H]([C@@H](C)c2c[nH]c3cccc(C)c23)O1" with Staphylococcus epidermidis, please?
> 128 µg/mL

Turning now to a further record.
Recorded MIC for "CNC1=NC(=O)[C@@H]([C@@H](C)c2c[nH]c3c(F)cccc23)O1" with Staphylococcus epidermidis, please?
1 µg/mL

* * *

I'd appreciate it if you could supply MIC values for the items below.
system: Staphylococcus aureus; assay: Antibacterial activity against methicillin-sensitive Staphylococcus aureus MSSA17-2 measured by liquid dilution method; format: functional
For clarity, give the value followed by its unit.

Here are 3 compounds together with their reported answers.
Recorded MIC for "CNC1=NC(=O)[C@H]([C@H](C)c2c[nH]c3cccc(F)c23)O1" with Staphylococcus aureus, please?
1 µg/mL

Recorded MIC for "CNC1=NC(=O)[C@@H]([C@@H](C)c2c[nH]c3cccc(Br)c23)O1" with Staphylococcus aureus, please?
128 µg/mL

Recorded MIC for "CNC1=NC(=O)[C@H]([C@H](C)c2c[nH]c3cc(F)ccc23)O1" with Staphylococcus aureus, please?
16 µg/mL

Turning now to a further record.
Recorded MIC for "CNC1=NC(=O)[C@@H]([C@@H](C)c2c[nH]c3c(F)cccc23)O1" with Staphylococcus aureus, please?
4 µg/mL

* * *

assay: Stability in CD-1 mouse whole blood assessed as compound remaining at 2 uM and measured at 10 mins LC-MS/MS analysis; format: ADME, tissue-based; conditions: read-out: Stability
parameter-measured: remaining at 10 min, 2 µM (%)
Numbers only, in %.

Sample CC(C)[N+](C)(CCOC(=O)C1c2ccccc2Oc2ccccc21)C(C)C [PROPANTHELINE BROMIDE] — what was its remaining at 10 min, 2 µM?
93.5

* * *

assay: Stability in CD-1 mouse whole blood assessed as compound remaining at 2 uM and measured at 60 mins LC-MS/MS analysis; assay type: ADME, tissue-based; conditions: read-out: Stability
parameter-measured: remaining at 1 h, 2 µM (%)
Give bare numbers, in %.

Sample CC(C)[N+](C)(CCOC(=O)C1c2ccccc2Oc2ccccc21)C(C)C [PROPANTHELINE BROMIDE] — what was its remaining at 1 h, 2 µM?
64.7

* * *

I'd appreciate it if you could supply MIC values for the items below.
test system: Staphylococcus aureus; test: Antibacterial activity against methicillin-resistant Staphylococcus aureus NRS384 measured by liquid dilution method; type: functional

Here are 2 compounds together with their reported answers.
Recorded MIC for CNC1=NC(=O)C(C(C)c2c[nH]c3cc(C)ccc23)O1 (racemic) with Staphylococcus aureus, please?
8 µg/mL

Recorded MIC for CC(c1c[nH]c2ccccc12)C1SC(N)=NC1=O (racemic) with Staphylococcus aureus, please?
> 128 µg/mL

Hi team, please reply with MIC for each item in this list.
1. CC(c1c[nH]c2ccccc12)C1OC(N)=NC1=O (racemic)
2. CNC1=NC(=O)C(C(C)c2c[nH]c3cccc(C)c23)O1 (racemic)
3. CNC1=NC(=O)C(C(C)c2c[nH]c3ccccc23)S1 (racemic)
4. CC(c1c[nH]c2cccc(F)c12)C1SC(N)=NC1=O (racemic)
5. CNC1=NC(=O)C(C(C)c2c[nH]c3ccc(N4CCCCC4)cc23)O1 (racemic)
6. CNC1=NC(=O)C(C(C)c2c[nH]c3cccc(Cl)c23)S1 (racemic)
7. CNC1=NC(=O)C(C(C)c2c[nH]c3ccccc23)O1 (racemic)

1: > 128 µg/mL; 2: > 128 µg/mL; 3: > 128 µg/mL; 4: > 128 µg/mL; 5: > 128 µg/mL; 6: > 128 µg/mL; 7: 1 µg/mL

* * *

I'd appreciate it if you could supply fraction unbound at 4 h, 2 µM values for the items below.
experiment: Plasma protein binding in CD-1 mouse plasma incubated for 4 hrs at 2 uM measured by LC/MS/MS analysis; assay type: ADME, cell-free; conditions: read-out: PPB (converted)
Answers are plain numbers.

Here are 2 compounds together with their reported answers.
Sample "CNC1=NC(=O)[C@H]([C@H](C)c2c[nH]c3cccc(F)c23)O1" — what was its fraction unbound at 4 h, 2 µM?
0.2

Sample "CNC1=NC(=O)[C@H]([C@H](C)c2c[nH]c3cccc(C)c23)O1" — what was its fraction unbound at 4 h, 2 µM?
0.276

Hi team, please reply with fraction unbound at 4 h, 2 µM for each item in this list.
1. CC(=O)CC(c1ccccc1)c1c(O)c2ccccc2oc1=O (stereo not given)
2. CNC1=NC(=O)[C@H]([C@H](C)c2c[nH]c3cccc(Cl)c23)O1
3. CNC1=NC(=O)[C@H]([C@H](C)c2c[nH]c3ccccc23)O1

1. 0.098
2. 0.134
3. 0.441

* * *

tested on: Staphylococcus aureus; experiment: Antibacterial activity against methicillin-resistant Staphylococcus aureus MRSA17-3 measured by liquid dilution method; assay type: functional
parameter-measured: MIC

Hi team, please reply with MIC for each item in this list.
1. CNC1=NC(=O)[C@@H]([C@@H](C)c2c[nH]c3cccc(C)c23)O1
2. CNC1=NC(=O)[C@H]([C@H](C)c2c[nH]c3ccccc23)O1

["> 128 µg/mL", "0.25 µg/mL"]

Hi team, please reply with MIC for each item in this list.
1. CNC1=NC(=O)[C@@H]([C@@H](C)c2c[nH]c3ccccc23)O1
2. CNC1=NC(=O)[C@@H]([C@@H](C)c2c[nH]c3cc(F)ccc23)O1

1: > 128 µg/mL; 2: > 128 µg/mL

* * *

I'd appreciate it if you could supply MIC values for the items below.
tested on: Staphylococcus aureus; assay: Antibacterial activity against methicillin-resistant Staphylococcus aureus MRSA17-3 measured by liquid dilution method; type: functional
Give bare numbers, in µg/mL.

Here are 8 compounds together with their reported answers.
Sample "CNC1=NC(=O)[C@@H]([C@@H](C)c2c[nH]c3cccc(Cl)c23)O1" — what was its MIC?
64

Sample "CNC1=NC(=O)[C@H]([C@H](C)c2c[nH]c3c(F)cccc23)O1" — what was its MIC?
1

Sample "CNC1=NC(=O)[C@H]([C@H](C)c2c[nH]c3cc(F)ccc23)O1" — what was its MIC?
8

Sample "CNC1=NC(=O)[C@H]([C@H](C)c2c[nH]c3cccc(C)c23)O1" — what was its MIC?
0.5

Sample "CNC1=NC(=O)[C@@H]([C@@H](C)c2c[nH]c3c(F)cccc23)O1" — what was its MIC?
8

Sample "CNC1=NC(=O)[C@H]([C@H](C)c2c[nH]c3cccc(Br)c23)O1" — what was its MIC?
1

Sample "CNC1=NC(=O)[C@H]([C@H](C)c2c[nH]c3cccc(Cl)c23)O1" — what was its MIC?
0.5

Sample "CNC1=NC(=O)[C@@H]([C@@H](C)c2c[nH]c3cccc(Br)c23)O1" — what was its MIC?
64

Turning now to a further record.
Sample "CNC1=NC(=O)[C@H]([C@H](C)c2c[nH]c3cccc(F)c23)O1" — what was its MIC?
0.5
